All values here come from patent US10093660B2.

inhibition at 1 µM values for the molecules below.
Target: MNK1a (Homo sapiens (Human), UniProt Q9BUB5)
Sequence (Q9BUB5 other isoform, or with tags, fused parts or gaps): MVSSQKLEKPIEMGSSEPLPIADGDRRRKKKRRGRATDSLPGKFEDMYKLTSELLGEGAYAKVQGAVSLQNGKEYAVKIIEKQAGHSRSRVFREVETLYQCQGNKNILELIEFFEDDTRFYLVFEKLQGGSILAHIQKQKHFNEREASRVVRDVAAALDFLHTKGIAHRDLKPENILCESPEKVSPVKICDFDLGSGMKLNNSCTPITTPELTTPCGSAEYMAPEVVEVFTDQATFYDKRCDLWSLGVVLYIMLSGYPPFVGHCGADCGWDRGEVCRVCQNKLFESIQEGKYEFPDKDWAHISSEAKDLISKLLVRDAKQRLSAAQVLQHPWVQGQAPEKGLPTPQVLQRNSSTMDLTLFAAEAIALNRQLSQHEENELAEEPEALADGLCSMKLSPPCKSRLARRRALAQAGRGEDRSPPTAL
Assay: MNK1 in vitro kinase assay (Assay 3), Z'-LYTE
Assay type: biochemical
Conditions: compound concentration of 1 μM, read-out: MNK1 % INH
Field: numeric (%). Do not append units.

Solved entries (count: 4):
Fill in reported inhibition at 1 µM for this entry: Cc1cc(N=S(C)(=O)c2cccnc2)cc2ncnc(Nc3ccc(F)cc3O[C@@H]3COC[C@@H]3O)c12 (mixture of isomers)
92

Fill in reported inhibition at 1 µM for this entry: Cc1cc(N=S2(=O)CCCC2)cc2ncnc(Nc3cccnc3O[C@H]3CNC[C@@H]3O)c12
88

Fill in reported inhibition at 1 µM for this entry: O=S1(=Nc2cc(F)c3c(Nc4ccc(Cl)nc4O[C@H]4COC[C@@H]4O)ncnc3c2)CCC1
91

Fill in reported inhibition at 1 µM for this entry: COc1cc(N=S(C)(=O)C2CC2)cc2ncnc(Nc3ccc(F)cc3O[C@H]3COC[C@H]3O)c12 (mixture of isomers)
92

New cases:
Fill in reported inhibition at 1 µM for this entry: O=S1(=Nc2cc(Cl)c3c(Nc4cccnc4O[C@H]4COC[C@@H]4O)ncnc3c2)CCCC1
103

Fill in reported inhibition at 1 µM for this entry: CC[S@](C)(=O)=Nc1cc(C)c2c(Nc3ccc(F)cc3O[C@H]3COC[C@@H]3O)ncnc2c1 (single isomer, unassigned)
96

Fill in reported inhibition at 1 µM for this entry: Cc1cc(N=S2(=O)CCC2)cc2ncnc(Nc3ccc(F)cc3O[C@@H]3COC[C@@H]3O)c12 (racemic) [Example 2.67]
100

====

pIC50 values for the compounds below.
Target: MNK2a (Homo sapiens (Human))
Sequence (Q9HBH9 whole entry): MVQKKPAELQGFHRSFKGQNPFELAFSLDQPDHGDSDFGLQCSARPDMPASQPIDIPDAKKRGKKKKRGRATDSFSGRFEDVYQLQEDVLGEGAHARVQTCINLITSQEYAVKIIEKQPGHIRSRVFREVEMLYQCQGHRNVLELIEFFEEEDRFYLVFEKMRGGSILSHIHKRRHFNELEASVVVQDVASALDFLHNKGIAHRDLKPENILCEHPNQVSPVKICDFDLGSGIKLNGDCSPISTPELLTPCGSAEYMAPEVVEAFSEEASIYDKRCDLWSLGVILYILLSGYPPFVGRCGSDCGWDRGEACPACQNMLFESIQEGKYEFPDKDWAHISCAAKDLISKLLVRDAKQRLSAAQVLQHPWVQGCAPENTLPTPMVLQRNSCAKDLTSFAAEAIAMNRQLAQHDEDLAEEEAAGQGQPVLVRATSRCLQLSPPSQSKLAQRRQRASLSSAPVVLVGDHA
Test: MNK2a in vitro kinase assay (Assay 2), ADP-Glo
Format: biochemical
Conditions: assay 2; read-out: MNK2 IC50
pIC50 (log units): -log10 of the concentration in mol/L.

Fill in reported pIC50 for this entry: Cc1cc(N=S2(=O)CCCC2)cc2ncnc(Nc3ccc(F)cc3O[C@H]3CN(C)C[C@@H]3O)c12
7.92

Fill in reported pIC50 for this entry: Cc1cc(N=S2(=O)CCCC2)cc2ncnc(Nc3ccc(F)cc3O[C@@H]3CN(C)C[C@H]3O)c12
7.77

The record that follows has no pIC50 shown yet.
Fill in reported pIC50 for this entry: Cc1cc(N=S2(=O)CCC(O)CC2)cc2ncnc(Nc3ccc(F)cc3O[C@@H]3COC[C@@H]3O)c12 (mixture of isomers)
8.15

====

Molecular target: MNK2a (Homo sapiens (Human))
Assay: MNK2a in vitro kinase assay (Assay 2), ADP-Glo
Format: biochemical
Conditions: assay 2; read-out: MNK2 IC50
Text: B. MNK2a In Vitro Kinase Assay (Assay 2)
metric-name: pIC50
pIC50 (log units): -log10 of the concentration in mol/L.

Solved entries (count: 3):
Fill in reported pIC50 for this entry: COc1cc(N=S(C)(=O)C2CCOCC2)cc2ncnc(Nc3ccc(F)cc3O[C@H]3COC[C@H]3O)c12 (mixture of isomers) [Example 9.15]
7.49

Fill in reported pIC50 for this entry: COc1cc(N=S2(=O)CCC2)cc2ncnc(Nc3ccc(Cl)nc3O[C@H]3COC[C@@H]3O)c12 [Example 9.5]
9.00

Fill in reported pIC50 for this entry: Cc1cc(N=S2(=O)CCCC2)cc2ncnc(Nc3ccc(F)cc3O[C@@H]3COC[C@@H]3O)c12 (single isomer, unassigned) [Example 14.5]
8.52

New cases:
Fill in reported pIC50 for this entry: O=S1(=Nc2cc(Cl)c3c(Nc4ccc(Cl)nc4O[C@H]4COC[C@@H]4O)ncnc3c2)CCC1 [Example 1.16]
8.70

Fill in reported pIC50 for this entry: Cc1cc(N=S(C)(C)=O)cc2ncnc(Nc3ccc(Cl)cc3O[C@H]3COC[C@@H]3O)c12 [Example 1.23]
8.30

Fill in reported pIC50 for this entry: Cc1cc(N=S(C)(=O)C(C)(C)C)cc2ncnc(Nc3ccc(F)cc3O[C@@H]3COC[C@@H]3O)c12 (mixture of isomers) [Example 2.68]
7.96

Fill in reported pIC50 for this entry: O=S1(=Nc2cc(Cl)c3c(Nc4cccnc4O[C@H]4COC[C@@H]4O)ncnc3c2)CCCC1 [Example 1.15]
8.52

Fill in reported pIC50 for this entry: O=S1(=Nc2cc(F)c3c(Nc4ccc(Cl)nc4O[C@H]4COC[C@@H]4O)ncnc3c2)CCCC1 [Example 1.20]
8.70

Fill in reported pIC50 for this entry: Cc1cc(N=S(C)(=O)C2CCOCC2)cc2ncnc(Nc3ccc(F)cc3O[C@H]3COC[C@@H]3O)c12 (stereo partly drawn) [Example 2.78]
7.96
